Molecular target: T1, MICA (human, UniProt Q29983 24-383)
T1 chain: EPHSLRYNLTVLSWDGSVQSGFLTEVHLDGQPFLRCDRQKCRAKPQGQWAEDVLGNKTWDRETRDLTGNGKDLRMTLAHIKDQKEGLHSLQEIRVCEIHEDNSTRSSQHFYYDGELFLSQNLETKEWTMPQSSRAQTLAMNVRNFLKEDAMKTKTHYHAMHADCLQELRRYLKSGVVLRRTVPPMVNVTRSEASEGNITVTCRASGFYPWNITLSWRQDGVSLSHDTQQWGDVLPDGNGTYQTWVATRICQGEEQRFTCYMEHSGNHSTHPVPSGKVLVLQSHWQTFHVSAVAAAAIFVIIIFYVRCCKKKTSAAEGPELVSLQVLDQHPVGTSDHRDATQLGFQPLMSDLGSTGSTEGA
Test: Carterra LSA SPR
Kd values, listed per item
experimental.endpoint: Kd

>>> assay_result("D103388_1C7 [MICA/B]_H0_D103388_1C7 [MICA/B]_L0 (antibody, V domains shown) VH: QVQLRQSGPGLGQPSQSLSITCTVFGFSLTNYGVHWVRQSPGKGLEWLGMIWNDGFTDFNAAFISRLSISKDNSKSQVFFKMNSLQPSDTAIYYCASPYFHYAMDYWGQGTSVTVSS VL: QIVLTQSPAIMSASLGERVTMTCTASSSVSSSYLHWYQQKPGSSPKLWIYSTSNLASGVPARFSGSGSGTSYSLTISSMEAEDAATYYCHQYHRSPFTFGSGTKLEIK")
"22.9 nM"
>>> assay_result("D99136_2C11 [MICA/B]_H0_D99136_2C11 [MICA/B]_L0 (antibody, V domains shown) VH: DVQLQESGPGLVKPSQSLSLTCSVTGYSITSGYNWDWIRHSPGNKLEWMGYISYDGSTNYNPSLKNRISITRDTSKNQFFLKLNSVTTEDTATYYCASSYYRYFDYWGQGTTLTVSS VL: DVQMTQTTSSLSASLGDRVTISCSASQGISNYLNWFQQKPDGTVKLLIYYTSSLHSGVPSRFSGSGSGTDYSLTISNLEPEDIATYYCQQYTKLPWTFGGGTELEIK")
"17.8 nM"
>>> assay_result("2E5 (antibody, V domains shown) VH: EVKLVESGGGLVQPGGSLKLSCATSGFTFSDYYMFWVRQTPEKRLEWVAYISEGGGSTYYPDTIKGRFTISRDNAKNTLYLQMSRLRSEDTAMYYCVRQRGAYNRYDDGRGFAYWGQGTLVTVSA VL: DVLMTQTPLSLPVSLGDQASISCRSSQSIVHSNGNTYLEWYLQKPGQSPKLLIYKVSNRFSGVPDRLSGSGSGTDFTLKISRGEAEDLGVYYCFQGSHVPWTFGGGTKLEIK")
"0.599 nM"
